Activity calls are given as the source filed them.
quantity_kind: Kd

Incoming: Report Kd for CCOc1ccn(-c2ccc(F)cc2)c(=O)c1C(=O)Nc1ccc(Oc2ccnc(N)c2Cl)c(F)c1 tested on Misshapen-like kinase 1 (Homo sapiens). Further: in the data inactive means no Kd found up to 30 µM.
Sequence (Q8N4C8 whole entry): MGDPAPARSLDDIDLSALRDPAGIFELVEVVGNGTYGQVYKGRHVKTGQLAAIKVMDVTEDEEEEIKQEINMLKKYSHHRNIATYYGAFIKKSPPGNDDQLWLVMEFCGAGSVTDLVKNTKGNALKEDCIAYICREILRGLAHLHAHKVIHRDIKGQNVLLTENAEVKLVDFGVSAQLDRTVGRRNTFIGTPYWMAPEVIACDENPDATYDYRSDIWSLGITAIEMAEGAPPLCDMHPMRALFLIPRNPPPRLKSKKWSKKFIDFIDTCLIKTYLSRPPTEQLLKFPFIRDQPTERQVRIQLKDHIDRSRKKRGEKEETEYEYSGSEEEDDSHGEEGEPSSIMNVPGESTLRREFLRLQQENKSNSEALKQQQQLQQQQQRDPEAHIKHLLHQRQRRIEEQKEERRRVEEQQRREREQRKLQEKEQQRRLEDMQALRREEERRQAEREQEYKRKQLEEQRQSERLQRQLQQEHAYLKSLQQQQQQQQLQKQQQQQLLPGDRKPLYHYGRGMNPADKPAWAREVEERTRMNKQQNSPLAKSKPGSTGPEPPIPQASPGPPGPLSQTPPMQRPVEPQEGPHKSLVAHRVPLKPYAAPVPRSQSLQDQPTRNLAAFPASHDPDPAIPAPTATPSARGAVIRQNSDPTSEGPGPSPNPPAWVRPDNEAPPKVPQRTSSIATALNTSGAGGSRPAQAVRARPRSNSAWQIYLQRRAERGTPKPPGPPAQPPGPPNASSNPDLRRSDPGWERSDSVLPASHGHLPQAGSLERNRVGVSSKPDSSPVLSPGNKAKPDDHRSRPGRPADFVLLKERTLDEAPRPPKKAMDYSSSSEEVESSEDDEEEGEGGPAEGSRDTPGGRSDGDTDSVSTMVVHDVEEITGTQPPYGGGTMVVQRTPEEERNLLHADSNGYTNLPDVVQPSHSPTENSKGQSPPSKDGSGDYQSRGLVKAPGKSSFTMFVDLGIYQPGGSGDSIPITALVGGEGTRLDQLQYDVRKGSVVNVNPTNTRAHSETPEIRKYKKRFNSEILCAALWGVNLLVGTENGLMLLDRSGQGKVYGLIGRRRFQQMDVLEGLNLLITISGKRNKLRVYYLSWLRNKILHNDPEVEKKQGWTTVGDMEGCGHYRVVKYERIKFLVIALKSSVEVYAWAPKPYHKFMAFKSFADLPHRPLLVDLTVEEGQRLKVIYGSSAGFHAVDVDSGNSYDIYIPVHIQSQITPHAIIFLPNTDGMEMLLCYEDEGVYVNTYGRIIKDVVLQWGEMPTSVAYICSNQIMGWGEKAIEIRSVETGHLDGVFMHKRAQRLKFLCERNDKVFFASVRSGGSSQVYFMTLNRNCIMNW
Outgoing: > 30 µM (inactive)

Incoming: Report Kd for Cn1cc(-c2[nH]c3cc(NC(=O)[C@H](N)C4CCCCC4)cc4c3c2C=NNC4=O)cn1 tested on Misshapen-like kinase 1 (Homo sapiens). Further: in the data inactive means no Kd found up to 30 µM.
Outgoing: 0.02 µM

Incoming: Report Kd for COc1ccc(-c2ccc3ncc4c(c3c2)n(-c2ccc(N3CCNCC3)c(C(F)(F)F)c2)c(=O)n4C)cn1 [BGT-226 FREE BASE] tested on Misshapen-like kinase 1 (Homo sapiens). Further: in the data inactive means no Kd found up to 30 µM.
Outgoing: > 30 µM (inactive)

Incoming: Report Kd for C[C@]1(O)C[C@@H](c2nc(-c3ccc4ccc(-c5ccccc5)nc4c3)c3c(N)nccn32)C1 tested on Misshapen-like kinase 1 (Homo sapiens). Further: in the data inactive means no Kd found up to 30 µM.
Outgoing: > 30 µM (inactive)

Incoming: Report Kd for O=C(O)c1ccc2c(c1)nc(Nc1cccc(Cl)c1)c1ccncc12 tested on Misshapen-like kinase 1 (Homo sapiens). Further: in the data inactive means no Kd found up to 30 µM.
Outgoing: > 30 µM (inactive)

---

Target: Ephrin type-A receptor 2 (Homo sapiens, UniProt P29317); further: in the data inactive means no Kd found up to 30 µM
Sequence (P29317 whole entry): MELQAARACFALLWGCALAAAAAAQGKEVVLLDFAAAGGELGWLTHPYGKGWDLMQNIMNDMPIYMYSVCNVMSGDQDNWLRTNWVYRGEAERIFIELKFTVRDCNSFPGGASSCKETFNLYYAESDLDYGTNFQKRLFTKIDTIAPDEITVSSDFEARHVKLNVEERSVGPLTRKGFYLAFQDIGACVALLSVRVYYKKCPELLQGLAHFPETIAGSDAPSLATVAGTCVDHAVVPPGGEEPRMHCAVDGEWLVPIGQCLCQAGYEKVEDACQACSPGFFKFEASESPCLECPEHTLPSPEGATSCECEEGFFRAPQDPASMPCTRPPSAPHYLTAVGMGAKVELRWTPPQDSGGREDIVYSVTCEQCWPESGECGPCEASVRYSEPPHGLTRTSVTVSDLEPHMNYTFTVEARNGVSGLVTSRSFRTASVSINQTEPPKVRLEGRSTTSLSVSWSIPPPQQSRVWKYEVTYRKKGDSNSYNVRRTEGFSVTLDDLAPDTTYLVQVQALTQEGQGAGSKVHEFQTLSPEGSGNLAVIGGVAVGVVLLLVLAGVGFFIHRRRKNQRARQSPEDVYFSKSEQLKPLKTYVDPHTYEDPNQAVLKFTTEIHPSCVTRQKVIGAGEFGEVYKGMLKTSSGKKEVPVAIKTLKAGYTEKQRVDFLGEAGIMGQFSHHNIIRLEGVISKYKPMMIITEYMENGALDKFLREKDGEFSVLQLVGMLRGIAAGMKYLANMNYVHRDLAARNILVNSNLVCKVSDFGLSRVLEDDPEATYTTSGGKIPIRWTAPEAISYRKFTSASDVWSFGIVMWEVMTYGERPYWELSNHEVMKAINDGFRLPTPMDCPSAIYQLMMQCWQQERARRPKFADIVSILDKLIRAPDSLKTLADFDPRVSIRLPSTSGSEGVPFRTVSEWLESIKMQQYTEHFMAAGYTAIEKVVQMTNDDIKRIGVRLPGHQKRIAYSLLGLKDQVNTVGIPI
Activity calls are given as the source filed them.
Can you answer with just one of these options? active, inactive

Incoming: Hi team, can someone confirm the assay call for CCOc1ccn(-c2ccc(F)cc2)c(=O)c1C(=O)Nc1ccc(Oc2ccnc(N)c2Cl)c(F)c1 ?
Outgoing: inactive

Incoming: Hi team, can someone confirm the assay call for O=c1[nH]c([C@@H]2CCCN2)nc2c1oc1ccc(Cl)cc12 ?
Outgoing: inactive

Incoming: Hi team, can someone confirm the assay call for C#Cc1cccc(Nc2ncnc3cc4c(cc23)OCCOCCOCCO4)c1 ?
Outgoing: inactive

Incoming: Hi team, can someone confirm the assay call for NC(=O)c1ccc(N(C(N)=O)c2c(F)cccc2F)nc1-c1ccc(F)cc1F ?
Outgoing: inactive

Incoming: Hi team, can someone confirm the assay call for N#CCNC(=O)c1ccc(-c2ccnc(Nc3ccc(N4CCOCC4)cc3)n2)cc1 ?
Outgoing: inactive

Incoming: Hi team, can someone confirm the assay call for FC(F)(F)c1ccc(CNc2ccc(Cc3c[nH]c4ncc(Cl)cc34)cn2)cn1 ?
Outgoing: inactive

Incoming: Hi team, can someone confirm the assay call for O=S(=O)(c1cccc2c(O)nccc12)N1CCCNCC1 [HYDROXYFASUDIL] ?
Outgoing: inactive

Incoming: Hi team, can someone confirm the assay call for Cc1cc(-c2cc(OC(=O)c3ccccc3)ccc2Cl)cc2nnc(Nc3ccc(OCCN4CCCC4)cc3)nc12 ?
Outgoing: active

Incoming: Hi team, can someone confirm the assay call for O=C(NOC[C@H](O)CO)c1ccc(F)c(F)c1Nc1ccc(I)cc1F ?
Outgoing: inactive

---

Biological target: Casein kinase II subunit alpha' (Homo sapiens, UniProt P19784); further: in the data inactive means no Kd found up to 30 µM
Sequence (P19784 whole entry): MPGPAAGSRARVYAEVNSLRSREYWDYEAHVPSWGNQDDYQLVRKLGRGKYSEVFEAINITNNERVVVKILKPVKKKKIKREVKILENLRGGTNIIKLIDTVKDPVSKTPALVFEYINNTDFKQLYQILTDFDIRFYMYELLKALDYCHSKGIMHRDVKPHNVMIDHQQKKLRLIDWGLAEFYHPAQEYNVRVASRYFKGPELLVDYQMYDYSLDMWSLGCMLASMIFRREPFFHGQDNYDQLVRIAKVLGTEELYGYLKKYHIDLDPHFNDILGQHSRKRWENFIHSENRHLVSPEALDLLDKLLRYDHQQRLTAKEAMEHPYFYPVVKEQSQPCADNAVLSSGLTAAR
The source made the active and inactive calls.
Can you answer with just one of these options? TRUE (active), FALSE (inactive)

Incoming: Hi team, can someone confirm the assay call for O=S(=O)(c1cccc2cnccc12)N1CCCNCC1 [FASUDIL] ?
Outgoing: FALSE

Incoming: Hi team, can someone confirm the assay call for O=c1[nH]c([C@@H]2CCCN2)nc2c1oc1ccc(Cl)cc12 ?
Outgoing: TRUE

Incoming: Hi team, can someone confirm the assay call for CN1CCN(c2nc(C3=C(c4c[nH]c5ccccc45)C(=O)NC3=O)c3ccccc3n2)CC1 [SOTRASTAURIN] ?
Outgoing: FALSE

Incoming: Hi team, can someone confirm the assay call for C[C@]1(O)C[C@@H](c2nc(-c3ccc4ccc(-c5ccccc5)nc4c3)c3c(N)nccn32)C1 [LINSITINIB] ?
Outgoing: FALSE

Incoming: Hi team, can someone confirm the assay call for COc1cc(F)c(F)c(Nc2ccc(I)cc2F)c1NS(=O)(=O)C1(C[C@H](O)CO)CC1 [REFAMETINIB] ?
Outgoing: FALSE
